Test system: Septoria nodorum
Experiment: Fungicidal test, Septoria nodorum (LEPTNO) on wheat, PRCO
Assay type: in vivo
Details: METHOD 2 (unbanded)
Response field label: string, one of yes (LEPTNO 1 d Prot/Foir PRCO strictly below 10) or no.

Known results for molecules:
{"MOLECULE": "CCN(C)c1nc2cc(CC(=O)Nc3snc(C)c3Cl)ccc2o1", "CLASSIFICATION": "no"}
{"MOLECULE": "Cc1nsc(NC(=O)Cc2ccc3oc(C(C)C#N)nc3c2)c1Cl (racemic)", "CLASSIFICATION": "yes"}
{"MOLECULE": "Cc1nsc(NC(=O)Cc2ccc3oc(C(F)(F)C(F)(F)C(F)(F)F)nc3c2)c1Cl", "CLASSIFICATION": "yes"}
{"MOLECULE": "Cc1nsc(NC(=O)Cc2ccc3oc(-c4sccc4Cl)nc3c2)c1Cl", "CLASSIFICATION": "no"}

INPUT: Record "Cc1nsc(NC(=O)Cc2ccc3oc(CC#N)nc3c2)c1Cl" : is its LEPTNO 1 d Prot/Foir PRCO strictly below 10?
OUTPUT: no

INPUT: Record "Cc1nsc(NC(=O)Cc2ccc3oc(CCc4ccccc4)nc3c2)c1Cl" : is its LEPTNO 1 d Prot/Foir PRCO strictly below 10?
OUTPUT: no

INPUT: Record "COCc1nc2cc(CC(=O)Nc3snc(C)c3Cl)ccc2o1" : is its LEPTNO 1 d Prot/Foir PRCO strictly below 10?
OUTPUT: no

* * *

System: Musca domestica
Settings: 500 ppm by weight; knockdown assessed 15 minutes after treatment
Catalogue of MUSCDO AC = Musca domestica (knockdown), score readings, one per entry.

Recorded MUSCDO AC = Musca domestica (knockdown), score, per entry:
{"COMPOUND": "Cc1nsc(NC(=O)Cc2ccc3ocnc3c2)c1Cl", "READING": "0 (0 indicates less than 40% mortality)"}
{"COMPOUND": "CCCc1nc2cc(CC(=O)N(C)c3snc(C)c3Cl)ccc2o1", "READING": "0 (0 indicates less than 40% mortality)"}
{"COMPOUND": "CCOCN(C(=O)Cc1ccc2oc(CC(C)(C)C)nc2c1)c1snc(C)c1Cl", "READING": "9 (9 indicates 80-100% mortality)"}

INPUT: State its MUSCDO AC = Musca domestica (knockdown), score on Musca domestica: "Cc1nsc(NC(=O)Cc2ccc3oc(C(C)(C)CCl)nc3c2)c1Cl"
OUTPUT: 5 (5 indicates 40-79% mortality)

INPUT: State its MUSCDO AC = Musca domestica (knockdown), score on Musca domestica: "Cc1nsc(NC(=O)Cc2ccc3oc(CF)nc3c2)c1Cl"
OUTPUT: 0 (0 indicates less than 40% mortality)

* * *

Test system: Musca domestica
Conditions: 500 ppm by weight; knockdown assessed 15 minutes after treatment
Catalogue of MUSCDO AC = Musca domestica (knockdown), score readings, one per entry.

Recorded MUSCDO AC = Musca domestica (knockdown), score, per entry:
{"MOLECULE": "Cc1nsc(NC(=O)Cc2ccc3oc(NC(C)(C)C)nc3c2)c1Cl [183(A3)]", "EXPERIMENTAL TARGET": "Musca domestica", "READING": "0 (0 indicates less than 40% mortality)"}
{"MOLECULE": "COCN(C(=O)Cc1ccc2oc(CC(C)(C)C)nc2c1)c1snc(C)c1Cl [15(K3)]", "EXPERIMENTAL TARGET": "Musca domestica", "READING": "0 (0 indicates less than 40% mortality)"}
{"MOLECULE": "CCN(C(=O)Cc1ccc2oc(C)nc2c1)c1snc(C)c1Cl [2(C3)]", "EXPERIMENTAL TARGET": "Musca domestica", "READING": "9 (9 indicates 80-100% mortality)"}

Moving on to the next molecule.
INPUT: # lookup: MUSCDO AC = Musca domestica (knockdown), score of Cc1nsc(NC(=O)Cc2ccc3oc(C(C)C)nc3c2)c1Cl [8(A3)]
OUTPUT: 9 (9 indicates 80-100% mortality)

* * *

Tested on: Septoria nodorum
Test: Fungicidal test, Septoria nodorum (LEPTNO) on wheat, PRCO
Format: in vivo
Details: METHOD 2 (unbanded)
Catalogue of LEPTNO 1 d Prot/Foir PRCO readings, one per entry.

Recorded LEPTNO 1 d Prot/Foir PRCO, per entry:
{"MOLECULAR STRING": "Cc1nsc(NC(=O)Cc2ccc3oc(-c4cc(Cl)cc(Cl)c4)nc3c2)c1Cl", "EXPERIMENTAL TARGET": "Septoria nodorum", "LEPTNO 1 d Prot/Foir PRCO": "−7"}
{"MOLECULAR STRING": "CCCN(C(=O)Cc1ccc2oc(CC(C)(C)C)nc2c1)c1snc(C)c1Cl", "EXPERIMENTAL TARGET": "Septoria nodorum", "LEPTNO 1 d Prot/Foir PRCO": 70}
{"MOLECULAR STRING": "Cc1nsc(NC(=O)Cc2ccc3oc(NC(C)(C)C)nc3c2)c1Cl", "EXPERIMENTAL TARGET": "Septoria nodorum", "LEPTNO 1 d Prot/Foir PRCO": 19}
{"MOLECULAR STRING": "COC(=O)CSc1nc2cc(CC(=O)Nc3snc(C)c3Cl)ccc2o1", "EXPERIMENTAL TARGET": "Septoria nodorum", "LEPTNO 1 d Prot/Foir PRCO": 2}
{"MOLECULAR STRING": "Cc1nsc(NC(=O)Cc2ccc3oc(C(F)(F)F)nc3c2)c1Cl", "EXPERIMENTAL TARGET": "Septoria nodorum", "LEPTNO 1 d Prot/Foir PRCO": 27}

INPUT: # lookup: LEPTNO 1 d Prot/Foir PRCO of "Cc1nsc(NC(=O)Cc2ccc3oc(CC4CC4)nc3c2)c1Cl"
OUTPUT: 77

INPUT: # lookup: LEPTNO 1 d Prot/Foir PRCO of "CCSc1nc2cc(CC(=O)Nc3snc(C)c3Cl)ccc2o1"
OUTPUT: 20

INPUT: # lookup: LEPTNO 1 d Prot/Foir PRCO of "Cc1nsc(NC(=O)Cc2ccc3nc(CC(C)(C)C)[nH]c3c2)c1Cl"
OUTPUT: 0

INPUT: # lookup: LEPTNO 1 d Prot/Foir PRCO of "CCc1nsc(NC(=O)Cc2ccc3oc(CC(C)(C)C)nc3c2)c1Cl"
OUTPUT: −2

INPUT: # lookup: LEPTNO 1 d Prot/Foir PRCO of "Cc1nsc(NC(=O)Cc2ccc3oc(N4CCOCC4)nc3c2)c1Cl"
OUTPUT: 36

INPUT: # lookup: LEPTNO 1 d Prot/Foir PRCO of "CCCc1nc2ccc(CC(=O)Nc3snc(C)c3Cl)cc2[nH]1"
OUTPUT: 0

INPUT: # lookup: LEPTNO 1 d Prot/Foir PRCO of "CCCc1nc2cc(CC(=O)Nc3snc(C)c3Cl)ccc2s1"
OUTPUT: 20

* * *

Catalogue of PYRIOR 1 d Prot/Foir PRCO readings, one per entry.
Tested on: Pyricularia oryzae
Assay type: in vivo
Details: METHOD 2 (unbanded)
Give the figure by itself; no unit, no explanation.

Recorded PYRIOR 1 d Prot/Foir PRCO, per entry:
{"COMPOUND": "CCC(C)c1nc2cc(CC(=O)Nc3snc(C)c3Cl)ccc2o1 (stereo not shown)", "PYRIOR 1 d Prot/Foir PRCO": 77}
{"COMPOUND": "Cc1nsc(N(C)C(=O)Cc2ccc3oc(CC(C)(C)C)nc3c2)c1Cl", "PYRIOR 1 d Prot/Foir PRCO": 69}
{"COMPOUND": "CCCc1nc2ccc(CC(=O)Nc3snc(C)c3Cl)cc2[nH]1", "PYRIOR 1 d Prot/Foir PRCO": 38}
{"COMPOUND": "Cc1nsc(NC(=O)Cc2ccc3oc(-c4ccncc4)nc3c2)c1Cl", "PYRIOR 1 d Prot/Foir PRCO": 33}
{"COMPOUND": "Cc1nsc(NC(=O)Cc2ccc3oc(CC#N)nc3c2)c1Cl", "PYRIOR 1 d Prot/Foir PRCO": 28}

INPUT: # lookup: PYRIOR 1 d Prot/Foir PRCO of "Cc1nsc(N(CC(F)(F)F)C(=O)Cc2ccc3oc(CC(C)(C)C)nc3c2)c1Cl"
OUTPUT: 46

INPUT: # lookup: PYRIOR 1 d Prot/Foir PRCO of "CCCCc1nc2cc(CC(=O)Nc3snc(C)c3Cl)ccc2o1"
OUTPUT: 31

INPUT: # lookup: PYRIOR 1 d Prot/Foir PRCO of "Cc1nsc(NC(=O)Cc2ccc3oc(C(F)(F)C(F)F)nc3c2)c1Cl"
OUTPUT: 98

INPUT: # lookup: PYRIOR 1 d Prot/Foir PRCO of "CCc1nsc(NC(=O)Cc2ccc3oc(C)nc3c2)c1Cl"
OUTPUT: 75

INPUT: # lookup: PYRIOR 1 d Prot/Foir PRCO of "Cc1cc(NC(=O)Cc2ccc3oc(CC(C)(C)C)nc3c2)sn1"
OUTPUT: 87

* * *

Tested on: Venturia inaequalis
Experiment: Fungicidal test, Venturia inaequalis (VENTIN) on apples, PRCO
Format: in vivo
Conditions: METHOD 2 (unbanded)
Class yes: VENTIN 1 d Prot/Foir PRCO at least 8. Class no: VENTIN 1 d Prot/Foir PRCO below 8.

{"COMPOUND": "CCOCN(C(=O)Cc1ccc2oc(CC(C)(C)C)nc2c1)c1snc(C)c1Cl [15(L3)]", "CLASSIFICATION": "no"}

Alright, here's another compound for you.
INPUT: Does VENTIN 1 d Prot/Foir PRCO meet or surpass 8 for Cc1nsc(NC(=S)Cc2ccc3oc(CC(C)(C)C)nc3c2)c1Cl [15(V3)] ?
OUTPUT: yes

All figures here come from patent US6544989B2.
